test system: Klebsiella pneumoniae; conditions: Concentration 32 ug.mL-1; ASSAY_TEST Inhibition of Bacterial Growth; detection method Absorption (OD600); MEDIA CAMHB; plate type 384well; NBS; CORNING #3640; time 18 hr
Description: Antibacterial activity against Klebsiella pneumoniae MDR ATCC 70063 (CO-ADD:GN_003); MIC in CAMBH media using NBS plates, by OD(600)
Results with a measured potency or affinity are listed apart.
readout-name: Inhibition (%)

                               smiles_record  unit_annotation  reported_value
 0      COc1ccc2c(c1)C(=O)C(=Cc1cccnc1Br)CC2                %            8.16
 1        COc1ccc2c(c1)C(=O)C(=Cc1cccnc1)CC2                %           13.34
 2          COc1ccc2c(c1)CCC(=Cc1ccncc1)C2=O                %           14.05
 3  Cc1ccc(C=C2CN(C(=O)OC(C)(C)C)C/C(=C\c3ccc(C)cc3C)C2=O)c(C)c1                %           13.54
 4  COc1cccc2c1CCC(=Cc1cccc(C=C3CCc4c(OC)cccc4C3=O)c1)C2=O                %            0.44
 5        COc1ccc2c(c1)CCC(=Cc1cccnc1Cl)C2=O                %            12.5
 6         COc1ccc2c(c1)C(=O)C(=Cc1ccoc1)CC2                %           17.88
 7  COc1ccc(/C=C/C(=O)c2ccc(OCc3ccc(Br)cc3)cc2)cc1OC                %           12.55
 8  COc1ccc2c(c1)C(=O)C(=Cc1cccc(C=C3CCc4ccc(OC)cc4C3=O)c1)CC2                %           10.58
 9      COc1ccc2c(c1)C(=O)C(=Cc1cccnc1OC)CC2                %           14.75
10       COc1cc2c(cc1OC)C(=O)C(=Cc1ccoc1)CC2                %           14.64
11  CC(C)(C)OC(=O)N1CC(=Cc2ccoc2)C(=O)/C(=C/c2ccoc2)C1                %           21.57
12         COc1ccc2c(c1)C(=O)C(=Cc1ccco1)CC2                %           14.42
13           COc1ccc2c(c1)CCC(=Cc1ccoc1)C2=O                %           11.83
14       COc1cc2c(cc1OC)C(=O)C(=Cc1ccco1)CC2                %           12.89

====

tested on: Candida albicans; conditions: 32 ug/mL
Description: Antifungal activity against Candida albicans ATCC 90028 (CO-ADD:FG_001); MIC in YNB media using NBS plates, by OD630
Measured potencies and affinities stand elsewhere.
readout-name: Inhibition (%)

>>> print(df.to_string())
                                    compound  reported_value
 0          COc1ccc2c(c1)CCC(=Cc1ccccn1)C2=O            0.77
 1      COc1ccc2c(c1)CCC(=Cc1cncc(Br)c1)C2=O            4.95
 2  CC(C)(C)OC(=O)N1CC(=Cc2ccoc2)C(=O)/C(=C/c2ccoc2)C1            14.2
 3  COc1ccc2c(c1)C(O)C(=Cc1cccnc1Cl)CC2 (stereo unspecified)              15
 4             COc1cccc2c1CCC(=Cc1ccco1)C2=O            2.23
 5    COc1ccc2c(c1)C(=O)C(=Cc1cncc(Br)c1)CC2            3.19
 6           COc1ccc2c(c1)CCC(=Cc1ccoc1)C2=O            5.64
 7        COc1ccc2c(c1)CCC(=Cc1cccnc1Cl)C2=O            3.75
 8  COc1ccc2c(c1)C(=O)C(=Cc1cccc(C=C3CCc4ccc(OC)cc4C3=O)c1)CC2            2.22
 9         COc1ccc2c(c1)C(=O)C(=Cc1ccco1)CC2             6.5
10  Cc1ccc(C=C2CN(C(=O)OC(C)(C)C)C/C(=C\c3ccc(C)cc3C)C2=O)c(C)c1            -1.7

====

Inhibition by entry:
test system: Cryptococcus neoformans; settings: Concentration 32 ug.mL-1; ASSAY_TEST Inhibition of Fungal Growth; detection method Resazurin; Absorption (OD600-OD570); plate type 384well; NBS; CORNING #3640
Description: Antifungal activity against Cryptococcus neoformans H99 ATCC 208821 (CO-ADD:FG_002); MIC in YNB media using NBS plates, by Resazurin OD(600-570)
Results with a measured potency or affinity are listed apart.
readout-name: Inhibition (%)

In [3]: df
Out[3]:
                                   compound  readout_name  reported_value
0  CC(C)(C)OC(=O)N1CC(=Cc2ccco2)C(=O)/C(=C/c2ccco2)C1    Inhibition          -64.29
1        COc1ccc2c(c1)C(=O)C(=Cc1ccccn1)CC2    Inhibition           -7.78
2  COc1ccc2c(c1)C(O)C(=Cc1cccnc1Cl)CC2 (stereo not given)    Inhibition          -69.16
3       COc1cc2c(cc1OC)C(=O)C(=Cc1ccoc1)CC2    Inhibition         -157.54
4  COc1cccc2c1CCC(=Cc1cccc(C=C3CCc4c(OC)cccc4C3=O)c1)C2=O    Inhibition          -91.11
